tested on: MDA-MB-468; test: Antiproliferative activity against human MDA-MB-468 cells assessed as cell growth at 1 uM incubated for 3 days by 3H-thymidine incorporation assay relative to control; format: functional; conditions: read-out: Activity
Could you please report measured growth at 1 µM for the items listed next?
Give the value in % but do not write % after it.

// `COc1ccc(OC)c(NC(=O)c2sc3nc4c(cc3c2N)CCCCCC4)c1` : growth at 1 µM value = 94

// `Nc1c(C(=O)Nc2cccc(Cl)c2)sc2nc3c(cc12)CCCC3` : growth at 1 µM value = 58

// `Cc1ccc(C)c(NC(=O)c2cc3cc4cc(C)ccc4nc3s2)c1` : growth at 1 µM value = 77

// `COc1ccc(NC(=O)c2sc3nc4ccccc4cc3c2N)cc1` : growth at 1 µM value = 68

// `Nc1c(C(=O)Nc2ccccc2C(F)(F)F)sc2nc3c(cc12)CCCC3` : growth at 1 µM value = 93

// `Nc1c(C(=O)Nc2cccc(Cl)c2)sc2nc3c(cc12)CCC3` : growth at 1 µM value = 53

// `Nc1c(C(=O)Nc2ccc(Cl)c(Cl)c2)sc2nc3c(cc12)CCCCC3` : growth at 1 µM value = 77

// `Cc1cccc(NC(=O)c2sc3nc4c(cc3c2N)CCCC4)c1C` : growth at 1 µM value = 3

// `CC(=O)c1cccc(NC(=O)c2sc3nc4c(cc3c2N)CCCCCC4)c1` : growth at 1 µM value = 72

// `Cc1cccc(NC(=O)c2sc3nc4c(cc3c2N)CCCCC4)c1C` : growth at 1 µM value = 4

---

experiment: Antiproliferative activity against human HCT116 cells assessed as cell growth at 1 uM incubated for 3 days by 3H-thymidine incorporation assay relative to control; assay type: functional; conditions: HCT-116, read-out: Activity
Reported Metric: growth at 1 µM (%)
Give the value in % but do not write % after it.

// `Nc1c(C(=O)Nc2ccc3ccccc3c2)sc2nc3c(cc12)CCC3` : growth at 1 µM value = 94

// `Nc1c(C(=O)Nc2cccc3ccccc23)sc2nc3c(cc12)CCCC3` : growth at 1 µM value = 37

// `Nc1c(C(=O)Nc2cccc([N+](=O)[O-])c2)sc2nc3c(cc12)CCCC3` : growth at 1 µM value = 75

// `Cc1ccc2nc3sc(C(=O)Nc4cccnc4)cc3cc2c1` : growth at 1 µM value = 102

// `Cc1cccc(NC(=O)c2sc3nc4c(cc3c2N)CCCCCC4)c1C` : growth at 1 µM value = 6

---

test system: MDA-MB-231; test: Antiproliferative activity against human MDA-MB-231 cells assessed as cell growth at 1 uM incubated for 3 days by 3H-thymidine incorporation assay relative to control; type: functional; conditions: read-out: Activity
Exam item: assign criterion met to entries whose growth at 1 µM is below 90% and criterion not met to entries at or above 90%. Note that a value of exactly 90% receives criterion not met.

Query: Problem: For the molecule `Nc1c(C(=O)Nc2cccc(F)c2)sc2nc3c(cc12)CCCCC3` , is growth at 1 µM under 90%?
Result: criterion met

Query: Problem: For the molecule `Nc1c(C(=O)Nc2ccccc2Cl)sc2nc3c(cc12)CCCC3` , is growth at 1 µM under 90%?
Result: criterion not met

Query: Problem: For the molecule `Nc1c(C(=O)Nc2cccc([N+](=O)[O-])c2)sc2nc3c(cc12)CCCC3` , is growth at 1 µM under 90%?
Result: criterion met

Query: Problem: For the molecule `Cc1ccc(C)c(NC(=O)c2cc3cc4cc(C)ccc4nc3s2)c1` , is growth at 1 µM under 90%?
Result: criterion not met

Query: Problem: For the molecule `Nc1c(C(=O)Nc2cccc(C(F)(F)F)c2)sc2nc3c(cc12)CCCC3` , is growth at 1 µM under 90%?
Result: criterion not met

Query: Problem: For the molecule `Nc1c(C(=O)Nc2cccc(C(F)(F)F)c2)sc2nc3c(cc12)CCCCC3` , is growth at 1 µM under 90%?
Result: criterion not met

Query: Problem: For the molecule `COc1ccc(NC(=O)c2sc3nc4c(cc3c2N)CCCC4)cc1` , is growth at 1 µM under 90%?
Result: criterion not met

Query: Problem: For the molecule `Cc1cccc(NC(=O)c2cc3cc4cc(C)ccc4nc3s2)c1` , is growth at 1 µM under 90%?
Result: criterion not met

Query: Problem: For the molecule `Nc1c(C(=O)Nc2cccc([N+](=O)[O-])c2)sc2nc3c(cc12)CCCCC3` , is growth at 1 µM under 90%?
Result: criterion met

Query: Problem: For the molecule `Nc1c(C(=O)Nc2cccc3ccccc23)sc2nc3c(cc12)CCC3` , is growth at 1 µM under 90%?
Result: criterion met

Query: Problem: For the molecule `Cc1cccc(NC(=O)c2sc3nc4c(cc3c2N)CCCCC4)c1C` , is growth at 1 µM under 90%?
Result: criterion met

Query: Problem: For the molecule `Nc1c(C(=O)Nc2ccccc2F)sc2nc3c(cc12)CCCCC3` , is growth at 1 µM under 90%?
Result: criterion met

Query: Problem: For the molecule `COc1ccc(NC(=O)c2sc3nc4c(cc3c2N)CCCCCC4)cc1OC` , is growth at 1 µM under 90%?
Result: criterion not met

Query: Problem: For the molecule `COc1ccc(OC)c(NC(=O)c2sc3nc4c(cc3c2N)CCCCCC4)c1` , is growth at 1 µM under 90%?
Result: criterion not met

Query: Problem: For the molecule `Nc1c(C(=O)Nc2c(Cl)cccc2Cl)sc2nc3c(cc12)CCCC3` , is growth at 1 µM under 90%?
Result: criterion not met

Query: Problem: For the molecule `Cc1c(Br)cccc1NC(=O)c1sc2nc3c(cc2c1N)CCCC3` , is growth at 1 µM under 90%?
Result: criterion met

Query: Problem: For the molecule `COc1cccc(NC(=O)c2sc3nc4c(cc3c2N)CCCCC4)c1` , is growth at 1 µM under 90%?
Result: criterion met

Query: Problem: For the molecule `Cc1c(Cl)cccc1NC(=O)c1sc2nc3c(cc2c1N)CCCC3` , is growth at 1 µM under 90%?
Result: criterion met

---

assay: Antiproliferative activity against human HCT116 cells assessed as cell growth at 1 uM incubated for 3 days by 3H-thymidine incorporation assay relative to control; assay type: functional; conditions: HCT-116, read-out: Activity
Reported Metric: growth at 1 µM (%)
Give the value in % but do not write % after it.

// `COc1ccc(OC)c(NC(=O)c2sc3nc4c(cc3c2N)CCCCCC4)c1` : growth at 1 µM value = 107

// `CCCCOc1cccc(NC(=O)c2sc3nc4c(cc3c2N)CCCCC4)c1` : growth at 1 µM value = 97

// `Nc1c(C(=O)Nc2ccccc2)sc2nc3c(cc12)CCCC3` : growth at 1 µM value = 5

// `Nc1c(C(=O)Nc2ccccc2F)sc2nc3c(cc12)CCCCC3` : growth at 1 µM value = 15
